These data points were gathered from paper PMC9170038.

# studyTarget: MS2 coat protein, dlFG mutant (Escherichia phage MS2, UniProt P03612, del68-81insG)
# experimentalProtocol: 4 mM Mg2+; no ligand; RNA-MaP array; 100 mM Tris-HCl pH 7.5, 80 mM KCl, 4 mM MgCl2, 0.1 mg/mL BSA, 1 mM DTT, 0.01 mg/mL yeast tRNA, 0.01% Tween-20; protein 1.5 nM to 3 uM; 37 C (Table S3)
# testContext: chain copies: 2; label: tethered by stalled RNA polymerase
Please assign FALSE whenever Kd is at or above 10 nM, and TRUE whenever it is below.

Solved entries (count: 5):
- Eterna 1729 (Same State - Tryptophan A) (ssRNA) RNA: GGAGUCCCGUUAGAUUGUGUAGAUACAAGACGAGGACCGGUACGGCCGCCACUCGCCAUCGUCCAGUGAUGUUGGGCGUCACGGG: FALSE
- Eterna 1774 (Same State - Tryptophan B) (ssRNA) RNA: CGAUCUUGGUCGGCCGCCACUACACCCACACCAAAUAGGAAAGUAGCGAGUGAUGUUUGUGACGUUAGGACCGGGACCACUGGUC: FALSE
- Eterna 7684838 (Same State - Theophylline A) (ssRNA) RNA: AAAUUUAAUAUAUUUAAAUAAAUAUGUGAUACCAGACAUUUAUAAGUCCCUUGGCAGCACAAUGCAGUGAUGUUGCUUAUAAUAA: FALSE
- Eterna 7741440 (Same State - Theophylline A) (ssRNA) RNA: GGAGUGAUGUUCCAUUUUUAAAUCUCCGAUACCAGUAUGGAAACAUACCCUUGGCAGCGGUAAACCGCAGAUUAGGAAACUAGUC: FALSE
- Eterna 6433398 (Small Loop Exclusion NG 3) (ssRNA) RNA: UGAUCGAGAGAUCUUAGAUUCUGGUAGGAUAUACAUUAUAAAAGCUUUACAUGAGGAUCACCCAUGUAGAAGGACUAGAGUCUA: TRUE

Exercise: Would you kindly verify if Kd of Eterna 6429522 (Inverted Exclusion NG 3) (ssRNA) RNA: GUGGAUAGACGCCCACGUGAGACAUGAGGAUCACCCAUGUACAGAAGGUGGAGCGUUAAUGGUGCCAAGGAUAUGUACAUAAGG is strictly less than 10 nM?
Solution: TRUE

Exercise: Identify whether the binder Eterna 15484 (Exclusion 5) (ssRNA) RNA: CUUUGAUGAGGAUAUCGAGGUUAGUACAUGAGGAUCACCCAUGUUAUCCAGGUGUCGGAUCGAGAAGGUAUUGGAC records Kd below 10 nM.
Solution: FALSE
